The origin of these recorded values is patent US7256204B2.

Recorded melting point by entry

>  <compound>
Cl.c1ccc(C2CCN(CCC3CCc4cc(OCc5ccc6ccccc6c5)ccc4C3)CC2)cc1 (stereo not drawn)

>  <measurement.type>
melting point

>  <value.reported>
229 to 234 °C (dec.)

$$$$
>  <compound>
COc1ccc(-c2ccccc2COc2ccc3c(c2)CCC(CN(C)C)C3)cc1.Cl (stereo not drawn)

>  <measurement.type>
melting point

>  <value.reported>
170 to 171 °C

$$$$
>  <compound>
CN(C)CC1CCc2cc(OCc3ccc(-c4ccc(F)cc4)cc3)ccc2C1.Cl (stereo not drawn)

>  <measurement.type>
melting point

>  <value.reported>
223 to 234 °C

$$$$
>  <compound>
CC(=O)N(Cc1ccc(-c2ccccc2)cc1)c1ccc2c(c1)CCC(CN(C)C)C2.Cl (stereo not drawn)

>  <measurement.type>
melting point

>  <value.reported>
179 to 182 °C

$$$$
>  <compound>
CN(C)CC1CCc2cc(OCc3ccc(-c4ccc(C=O)cc4)cc3)ccc2C1.Cl (stereo not drawn)

>  <measurement.type>
melting point

>  <value.reported>
234 to 235 °C

$$$$
>  <compound>
COc1ccc(-c2ccc(COc3ccc4c(c3)CCC(CCN(C)C)C4)cc2)cc1.Cl (stereo not drawn)

>  <measurement.type>
melting point

>  <value.reported>
182 to 185 °C

$$$$

## Task Would you kindly share the measured melting point for COc1cccc(-c2ccc(COc3ccc4c(c3)CCC(CN(C)C)C4)cc2)c1.Cl (stereo not drawn) ?
## Result 207 to 208 °C

## Task Would you kindly share the measured melting point for CN(C)CC1CCc2cc(OCc3ccccc3-c3ccccc3)ccc2C1.Cl (stereo not drawn) ?
## Result 173 to 174 °C

## Task Would you kindly share the measured melting point for CN(C)CC1CCc2cc(OCc3ccccc3-c3ccc(F)cc3)ccc2C1.Cl (stereo not drawn) ?
## Result 172 to 174 °C

## Task Would you kindly share the measured melting point for CN(C)CCCCC1CCc2cc(OCc3ccc(-c4ccccc4)cc3)ccc2C1.Cl (stereo not drawn) ?
## Result 175 to 177 °C

## Task Would you kindly share the measured melting point for Cl.OC1(O)CCN(CCC2CCc3cc(OCc4ccc(-c5ccccc5)cc4)ccc3C2)CC1 (stereo not drawn) ?
## Result 155 to 156 °C

## Task Would you kindly share the measured melting point for CN(C)CC1CCc2ccc(OCc3ccc4ccccc4c3)cc2C1.Cl (stereo not drawn) ?
## Result 201 to 202 °C
